target: Beta-lactamase TEM (Escherichia coli, UniProt P62593); assay: In vitro inhibitory activity against Class A (TEM-1) beta-Lactamases
Sequence (P62593 whole entry): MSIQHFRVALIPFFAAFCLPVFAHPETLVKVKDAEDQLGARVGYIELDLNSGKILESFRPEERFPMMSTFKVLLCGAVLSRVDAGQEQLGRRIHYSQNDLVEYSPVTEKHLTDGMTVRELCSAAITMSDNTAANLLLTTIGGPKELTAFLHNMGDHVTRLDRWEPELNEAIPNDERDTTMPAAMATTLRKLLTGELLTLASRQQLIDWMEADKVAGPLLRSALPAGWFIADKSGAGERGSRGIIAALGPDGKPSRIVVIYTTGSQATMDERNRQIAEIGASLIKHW
ATTRIBUTE MEASURED: IC50
Write the numeric value and append its unit.

Some entries whose results are on file:
- MOL SMILES: "O=C(O)C1=CS[C@@H]2/C(=C\\c3cc4n(n3)CCC4)C(=O)N12"
  RESULT: "1 nM"
- MOL SMILES: "O=C(O)C1=CS[C@@H]2/C(=C\\c3cnc4n3CCOC4)C(=O)N12"
  RESULT: "0.4 nM"
- MOL SMILES: "O=C(O)C1=CS[C@@H]2/C(=C\\c3cnc4n3CCNC4)C(=O)N12"
  RESULT: "5 nM"

Query string: Identify IC50 associated with the molecule O=C(O)C1=CS[C@@H]2/C(=C\c3cn4c5c(sc4n3)CCC5)C(=O)N12
Result string: 1 nM
